Experimental Target: UniProt:Q9HBA0
Sequence (Q9HBA0 whole entry): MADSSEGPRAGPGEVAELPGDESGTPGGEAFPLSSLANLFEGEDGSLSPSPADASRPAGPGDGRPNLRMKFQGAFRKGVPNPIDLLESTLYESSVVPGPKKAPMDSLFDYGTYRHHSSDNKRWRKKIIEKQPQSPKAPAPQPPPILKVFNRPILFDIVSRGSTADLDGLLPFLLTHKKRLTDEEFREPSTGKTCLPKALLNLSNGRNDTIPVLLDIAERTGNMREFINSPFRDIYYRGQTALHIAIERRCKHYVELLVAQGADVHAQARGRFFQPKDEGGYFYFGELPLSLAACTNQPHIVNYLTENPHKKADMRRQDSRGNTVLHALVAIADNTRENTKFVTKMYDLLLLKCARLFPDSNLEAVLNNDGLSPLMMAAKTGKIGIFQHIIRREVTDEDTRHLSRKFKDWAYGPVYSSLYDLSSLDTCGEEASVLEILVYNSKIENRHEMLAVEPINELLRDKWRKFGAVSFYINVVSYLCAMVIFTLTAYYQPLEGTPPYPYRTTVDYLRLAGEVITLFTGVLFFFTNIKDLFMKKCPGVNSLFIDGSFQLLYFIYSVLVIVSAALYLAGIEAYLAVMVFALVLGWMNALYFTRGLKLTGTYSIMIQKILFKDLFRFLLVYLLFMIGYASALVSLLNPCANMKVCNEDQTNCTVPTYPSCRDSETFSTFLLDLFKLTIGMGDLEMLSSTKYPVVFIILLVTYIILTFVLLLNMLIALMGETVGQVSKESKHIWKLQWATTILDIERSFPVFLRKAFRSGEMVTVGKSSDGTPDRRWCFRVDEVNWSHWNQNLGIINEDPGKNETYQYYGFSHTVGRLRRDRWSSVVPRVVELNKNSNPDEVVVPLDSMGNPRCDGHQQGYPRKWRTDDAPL
Assay: FLIPRtetra calcium assay, first addition (agonism)
Run Parameters: HEK-293 cells transiently transfected with human TRPV4, 37 °C; read-out: EC50 (increase in intracellular calcium)
Measurement Label: EC50

| Chem Smiles | Reported |
| --- | --- |
| CN1C(=O)c2ccc(NCc3nc(-c4c(F)cccc4F)cs3)cc2C1=O | 14 µM |
